All figures here come from patent US20170081400A1.

Biological target: T1, human TL1A extracellular domain with N-terminal HIS and FLAG tag (human, UniProt O95150 72-251)
T1 construct: the whole entry is named; also called TNFSF15
T1 sequence: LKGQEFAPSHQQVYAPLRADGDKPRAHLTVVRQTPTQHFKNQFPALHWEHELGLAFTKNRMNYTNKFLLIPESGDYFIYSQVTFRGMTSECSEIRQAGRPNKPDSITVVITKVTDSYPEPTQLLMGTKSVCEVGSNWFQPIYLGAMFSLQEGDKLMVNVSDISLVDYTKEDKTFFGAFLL
Experiment: SPR Run 7, antibody on Protein A, TL1A 5 ug/mL, timepoint 44
attribute.measured: TL1A Binding Level (Early) (RU)
Number only, in RU; omit the unit.

>  <binder>
320-508 (antibody, human IgG1, name in Kabat numbering, V domains shown, full-length human IgG1, lambda) VH: QVQLVQSGAEVKKPGASVKVSCKASGYTFTSYDINWVRQAPGQGLEWMGWLNDNSGNTGYAQKFQGRVTMTADRSTSTAYMELSSLRSEDTAVYYCAREVPETAAFEYWGQGTLVTVSS VL: QSVLTQPPSVSGAPGQRVTISCTSSSSDIGAGLGVHWYQQLPGTAPKLLIEGYYNRPSGVPDRFSGSKSGTSASLTITGLLPEDEGDYYCQSYDGTLSALFGGGTKLTVLG

>  <TL1A Binding Level (Early) (RU)>
19

$$$$
>  <binder>
320-494 (antibody, human IgG1, name in Kabat numbering, V domains shown, full-length human IgG1, lambda) VH: QVQLVQSGAEVKKPGASVKVSCKASGYTFTSYDINWVRQAPGQGLEWMGWHNPNSGNTGYAQKFQGRVTMTADRSTSTAYMELSSLRSEDTAVYYCAREVPETAAFEYWGQGTLVTVSS VL: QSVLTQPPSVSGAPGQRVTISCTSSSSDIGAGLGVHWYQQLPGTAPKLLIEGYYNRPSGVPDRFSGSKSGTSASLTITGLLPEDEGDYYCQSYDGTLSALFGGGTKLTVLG

>  <TL1A Binding Level (Early) (RU)>
150

$$$$

Turning to the following binder.
Assign TL1A Binding Level (Early) to the following record: 320-521 (antibody, human IgG1, name in Kabat numbering, V domains shown, full-length human IgG1, lambda) VH: QVQLVQSGAEVKKPGASVKVSCKASGYTFTSYDINWVRQAPGQGLEWMGWLNPWSGNTGYAQKFQGRVTMTADRSTSTAYMELSSLRSEDTAVYYCAREVPETAAFEYWGQGTLVTVSS VL: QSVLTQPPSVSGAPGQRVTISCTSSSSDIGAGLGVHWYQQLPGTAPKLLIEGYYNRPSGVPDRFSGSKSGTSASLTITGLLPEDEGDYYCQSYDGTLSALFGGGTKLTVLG 166
